Settings: 308.15 K; 100 kPa; Liquid; Falling or rolling sphere viscometry
± gives the expanded uncertainty stated by the source.
Quick reference for viscosity among some molecules
Parameter: viscosity

# Molecule, Result
rows = [
    ("CCCCC1CCCCC1 [butylcyclohexane]", "1.03 ± 0.013 mPa·s"),
    ("CC1CCCCC1 [methylcyclohexane]", "0.608 ± 0.011 mPa·s"),
    ("CCC1CCCCC1 [ethylcyclohexane]", "0.704 ± 0.011 mPa·s"),
    ("C1CCC(C2CCCCC2)CC1 [1,1'-bicyclohexyl]", "2.817 ± 0.023 mPa·s"),
]

----------
Quick reference for viscosity among some molecules
Conditions: 298.15 K; 100 kPa; Liquid; Falling or rolling sphere viscometry
Parameter: viscosity (mPa·s)

# Structure As Smiles, Readout Number
records = [
    ("CC1CCCCC1", 0.687),
    ("C1CCC(C2CCCCC2)CC1", 3.541),
    ("CCCCC1CCCCC1", 1.198),
    ("CCC1CCCCC1", 0.796),
]
